B1: FERM and PDZ domain-containing protein 4, residues 75 to 154; numbered along this chain, Q14CM0 (parent)
chain: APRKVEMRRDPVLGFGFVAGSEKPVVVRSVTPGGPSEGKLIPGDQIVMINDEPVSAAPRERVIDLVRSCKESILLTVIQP

# Variants of: B1
# Assay Overview: abundance fitness (aPCA) (normalised: wild type 0, dead -1); higher = more abundant; growth selection in yeast, the domain comes from the species named
# Test Context: Homo sapiens
Please enter yes (1) where abundance fitness is greater than or equal to -0.09, and no (0) where it is lower.

>  <Variant>
C69A

>  <Category Label>
yes (1)

$$$$
>  <Variant>
T31I

>  <Category Label>
no (0)

$$$$
>  <Variant>
P80I

>  <Category Label>
no (0)

$$$$
>  <Variant>
R59T

>  <Category Label>
yes (1)

$$$$
>  <Variant>
S29Y

>  <Category Label>
no (0)

$$$$
>  <Variant>
D51H

>  <Category Label>
yes (1)

$$$$
>  <Variant>
D44N

>  <Category Label>
no (0)

$$$$
>  <Variant>
E52N

>  <Category Label>
yes (1)

$$$$
>  <Variant>
G43V

>  <Category Label>
no (0)

$$$$
>  <Variant>
P11C

>  <Category Label>
no (0)

$$$$
>  <Variant>
P11Y

>  <Category Label>
no (0)

$$$$
>  <Variant>
S36M

>  <Category Label>
no (0)

$$$$
>  <Variant>
V27R

>  <Category Label>
no (0)

$$$$
>  <Variant>
P42L

>  <Category Label>
no (0)

$$$$
>  <Variant>
V27P

>  <Category Label>
no (0)

$$$$
>  <Variant>
D44A

>  <Category Label>
no (0)

$$$$
>  <Variant>
A57K

>  <Category Label>
yes (1)

$$$$
>  <Variant>
S68M

>  <Category Label>
yes (1)

$$$$
>  <Variant>
S29M

>  <Category Label>
yes (1)

$$$$
>  <Variant>
P2A

>  <Category Label>
yes (1)

$$$$
>  <Variant>
I78K

>  <Category Label>
yes (1)

$$$$
>  <Variant>
P42H

>  <Category Label>
no (0)

$$$$
>  <Variant>
R59A

>  <Category Label>
yes (1)

$$$$
>  <Variant>
G14M

>  <Category Label>
no (0)

$$$$
>  <Variant>
K23L

>  <Category Label>
yes (1)

$$$$
>  <Variant>
P58G

>  <Category Label>
yes (1)

$$$$
>  <Variant>
L75C

>  <Category Label>
no (0)

$$$$
>  <Variant>
R9N

>  <Category Label>
no (0)

$$$$
>  <Variant>
P53F

>  <Category Label>
no (0)

$$$$
>  <Variant>
D51Q

>  <Category Label>
yes (1)

$$$$
>  <Variant>
V47Q

>  <Category Label>
yes (1)

$$$$
>  <Variant>
P58C

>  <Category Label>
yes (1)

$$$$
>  <Variant>
L65K

>  <Category Label>
yes (1)

$$$$
>  <Variant>
V54Y

>  <Category Label>
no (0)

$$$$
>  <Variant>
M7T

>  <Category Label>
no (0)

$$$$
>  <Variant>
G33V

>  <Category Label>
no (0)

$$$$
>  <Variant>
R8L

>  <Category Label>
yes (1)

$$$$
>  <Variant>
S36A

>  <Category Label>
yes (1)

$$$$
>  <Variant>
P35V

>  <Category Label>
no (0)

$$$$
>  <Variant>
V12Q

>  <Category Label>
yes (1)

$$$$
>  <Variant>
Q79N

>  <Category Label>
yes (1)

$$$$
>  <Variant>
P24R

>  <Category Label>
no (0)

$$$$
>  <Variant>
E37N

>  <Category Label>
no (0)

$$$$
>  <Variant>
P42S

>  <Category Label>
no (0)

$$$$
>  <Variant>
M48K

>  <Category Label>
yes (1)

$$$$
>  <Variant>
M7Y

>  <Category Label>
no (0)

$$$$
>  <Variant>
E6A

>  <Category Label>
yes (1)

$$$$
>  <Variant>
S21N

>  <Category Label>
yes (1)

$$$$
>  <Variant>
I49N

>  <Category Label>
no (0)

$$$$
>  <Variant>
G43E

>  <Category Label>
no (0)

$$$$
>  <Variant>
C69F

>  <Category Label>
no (0)

$$$$
>  <Variant>
M48N

>  <Category Label>
no (0)

$$$$
>  <Variant>
R9S

>  <Category Label>
no (0)

$$$$
>  <Variant>
I49D

>  <Category Label>
no (0)

$$$$
>  <Variant>
M7D

>  <Category Label>
no (0)

$$$$
>  <Variant>
D44F

>  <Category Label>
no (0)

$$$$
>  <Variant>
N50Y

>  <Category Label>
no (0)

$$$$
>  <Variant>
V25Q

>  <Category Label>
no (0)

$$$$
>  <Variant>
V54I

>  <Category Label>
no (0)

$$$$
>  <Variant>
A19P

>  <Category Label>
yes (1)

$$$$
>  <Variant>
R67S

>  <Category Label>
yes (1)

$$$$
>  <Variant>
G14H

>  <Category Label>
no (0)

$$$$
>  <Variant>
P80R

>  <Category Label>
no (0)

$$$$
>  <Variant>
R8C

>  <Category Label>
no (0)

$$$$
>  <Variant>
V54Q

>  <Category Label>
no (0)

$$$$
>  <Variant>
K23T

>  <Category Label>
yes (1)

$$$$
>  <Variant>
D64K

>  <Category Label>
yes (1)

$$$$
>  <Variant>
R3N

>  <Category Label>
no (0)

$$$$
>  <Variant>
V5G

>  <Category Label>
no (0)

$$$$
>  <Variant>
E37C

>  <Category Label>
yes (1)

$$$$
>  <Variant>
A19Y

>  <Category Label>
yes (1)

$$$$
>  <Variant>
N50E

>  <Category Label>
yes (1)

$$$$
>  <Variant>
P32H

>  <Category Label>
yes (1)

$$$$
>  <Variant>
I78Y

>  <Category Label>
yes (1)

$$$$
>  <Variant>
S36N

>  <Category Label>
no (0)

$$$$
>  <Variant>
D44P

>  <Category Label>
no (0)

$$$$
>  <Variant>
Q79E

>  <Category Label>
yes (1)

$$$$
>  <Variant>
A1C

>  <Category Label>
yes (1)

$$$$
>  <Variant>
E60S

>  <Category Label>
yes (1)

$$$$
>  <Variant>
S29H

>  <Category Label>
no (0)

$$$$
>  <Variant>
R3F

>  <Category Label>
no (0)

$$$$
>  <Variant>
V30S

>  <Category Label>
no (0)

$$$$
>  <Variant>
R67A

>  <Category Label>
yes (1)

$$$$
>  <Variant>
K39V

>  <Category Label>
yes (1)

$$$$
